# assay name: total protein half-life in vivo (active degradation + dilution); higher = more stable protein
# test settings: E. coli NCM3722 delta-clpP delta-lon delta-hslV; growth: N-lim chemostat; doubling time 6 h

chain: MTALALFDLLKPNYALATQVEFTDPEIVAEYITYPSPNGHGEVRGYLVKPAKMSGKTPAVVVVHENRGLNPYIEDVARRVAKAGYIALAPDGLSSVGGYPGNDDKGRELQQQVDPTN [Q7DFU6]
total protein half-life in vivo, h: 2.25
--
chain: MSTLGHQYDNSLVSNAFGFLRLPMNFQPYDSDADWVITGVPFDMATSGRAGGRHGPAAIRQVSTNLAWEHNRFPWNFDMRERLNVVDCGDLVYAFGDAREMSEKLQAHAEKLLAAGKRMLSFGGDHFVTLPLLRAHAKHFGKMALVHFDAHTDTYANGCEFDHGTMFYTAPKEGLIDPNHSVQIGIRTEFDKDNGFTVLDACQVNDRSVDDVIAQVKQIVGDMPVYLTFDIDCLDPAFAPGTGTPVIGGLTSDRAIKLVRGLKDLNIVGMDVVEVAPAYDQSEITALAAATLALEMLYIQAAKKGE
total protein half-life in vivo, h: 6.58

* * *

Item-by-item account of total protein half-life in vivo
# assay name: total protein half-life in vivo (active degradation + dilution); higher = more stable protein
# test settings: wild type E. coli NCM3722; growth: P-lim chemostat; doubling time 6 h

chain: MKLISNDLRDGDKLPHRHVFNGMGYDGDNISPHLAWDDVPAGTKSFVVTCYDPDAPTGSGWWHWVVVNLPADTRVLPQGFGSGLVAMPDGVLQTRTDFGKTGYDGAAPPKGETHRYIFTVHALDIERIDVDEGASGAMVGFNVHFHSLASASITAMFS
total protein half-life in vivo, h: 6.04
--
chain: MTAPSQVLKIRRPDDWHLHLRDGDMLKTVVPYTSEIYGRAIVMPNLAPPVTTVEAAVAYRQRILDAVPAGHDFTPLMTCYLTDSLDPNELERGFNEGVFTAAKLYPANATTNSSHGVTSIDAIMPVLERMEKIGMPLLVHGEVTHADIDIFDREARFIESVMEPLRQRLTALKVVFEHITTKDAADYVRDGNERLAATITPQHLMFNRNHMLVGGVRPHLYCLPILKRNIHQQALRELVASGFNRVFLGTDSAPHARHRKESSCGCAGCFNAPTALGSYATVFEEMNALQHFEAFCSVNGPQFYGLPVNDTFIELVREEQQVAESIALTDDTLVPFLAGETVRWSVKQ
total protein half-life in vivo, h: 6.06
--
chain: MQAEILLTLKLQQKLFADPRRISLLKHIALSGSISQGAKDAGISYKSAWDAINEMNQLSEHILVERATGGKGGGGAVLTRYGQRLIQLYDLLAQIQQKAFDVLSDDDALPLNSLLAAISRFSLQTSARNQWFGTITARDHDDVQQHVDVLLADGKTRLKVAITAQSGARLGLDEGKEVLILLKAPWVGITQDEAVAQNADNQLPGIISHIERGAEQCEVLMALPDGQTLCATVPVNEATSLQQGQNVTAYFNADSVIIATLC [P0A9G8]
total protein half-life in vivo, h: 6.2

* * *

# assay name: total protein half-life in vivo (active degradation + dilution); higher = more stable protein
# test settings: wild type E. coli NCM3722; growth: N-lim chemostat; doubling time 12 h
quantity: total protein half-life in vivo

chain: MDQAGIIRDLLIWLEGHLDQPLSLDNVAAKAGYSKWHLQRMFKDVTGHAIGAYIRARRLSKSAVALRLTARPILDIALQYRFDSQQTFTRAFKKQFAQTPALYRRSPEWSAFGIRPPLRLGEFTMPEHKFVTLEDTPLIGVTQSYSCSLEQISDFRHEMRYQFWHDFLGNAPTIPPVLYGLNETRPSQDKDDEQEVFYTTALAQDQADGYVLTGHPVMLQGGEYVMFTYEGLGTGVQEFILTVYGTCMPMLNLTRRKGQDIERYYPAEDAKAGDRPINLRCELLIPIRR [P0ACI0]
recorded result: 9.41 h
//
chain: MDMDLNNRLTEDETLEQAYDIFLELAADNLDPADVLLFNLQFEERGGAELFDPAEDWQEHVDFDLNPDFFAEVVIGLADSEDGEINDVFARILLCREKDHKLCHIIWRE [P0A8L7]
recorded result: 7.29 h

Cited source: the supplement of paper PMC11246515
